Where do the numbers come from? From patent US20220144812A1.

targetOrSystem: CREBBP (1084-1701) (Homo sapiens, UniProt Q92793)
Construct: measured in the following biochemical assay using CREBBP (1084-1701); purchased
Sequence (Q92793 1084-1701): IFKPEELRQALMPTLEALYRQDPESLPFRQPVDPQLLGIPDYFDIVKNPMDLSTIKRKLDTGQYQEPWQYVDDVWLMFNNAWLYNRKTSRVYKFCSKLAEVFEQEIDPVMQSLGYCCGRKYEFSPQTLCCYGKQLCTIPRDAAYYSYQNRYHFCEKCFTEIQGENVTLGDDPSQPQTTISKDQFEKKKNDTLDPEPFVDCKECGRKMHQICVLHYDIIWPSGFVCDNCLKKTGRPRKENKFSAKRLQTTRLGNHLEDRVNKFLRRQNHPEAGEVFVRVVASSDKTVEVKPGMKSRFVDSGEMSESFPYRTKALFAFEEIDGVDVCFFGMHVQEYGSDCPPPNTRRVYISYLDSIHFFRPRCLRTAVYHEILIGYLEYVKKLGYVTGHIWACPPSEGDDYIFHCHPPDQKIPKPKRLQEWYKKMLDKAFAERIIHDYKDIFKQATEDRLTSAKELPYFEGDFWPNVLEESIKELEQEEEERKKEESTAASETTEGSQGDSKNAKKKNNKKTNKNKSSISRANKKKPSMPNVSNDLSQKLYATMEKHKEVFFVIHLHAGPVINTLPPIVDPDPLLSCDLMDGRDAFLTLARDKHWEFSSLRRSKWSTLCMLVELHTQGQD
method: Biochemical assay for CREBBP (1084-1701), SAMDI
recordedConditions: SAMDI, read-out: CREBBP Biochemistry IC50
Below, each of the molecules is paired with its reported IC50 value.
Respond with the bare value in nM.

Look over these answered cases.
CCn1ncc(CN(C)C(=O)c2nc(-c3ccnc(Cl)c3)nc3ccc(NC)cc23)c1C; 840
CCn1ncc(CN(C)C(=O)c2nc(-c3cc4nc[nH]c4cc3Cl)nc3ccc(Cl)cc23)c1C; 84

Next molecule, IC50 to be filled in.
response.value for `CCc1ncc(CN(C)C(=O)c2cc(-c3cc4n[nH]cc4cn3)nc3ccc(COC)cc23)n1C` (field: IC50) = 62.9

###

targetOrSystem: EP300 (P300(1048-1664)) (Homo sapiens)
Construct: P300(1048-1664)
Sequence (Q09472 1048-1664): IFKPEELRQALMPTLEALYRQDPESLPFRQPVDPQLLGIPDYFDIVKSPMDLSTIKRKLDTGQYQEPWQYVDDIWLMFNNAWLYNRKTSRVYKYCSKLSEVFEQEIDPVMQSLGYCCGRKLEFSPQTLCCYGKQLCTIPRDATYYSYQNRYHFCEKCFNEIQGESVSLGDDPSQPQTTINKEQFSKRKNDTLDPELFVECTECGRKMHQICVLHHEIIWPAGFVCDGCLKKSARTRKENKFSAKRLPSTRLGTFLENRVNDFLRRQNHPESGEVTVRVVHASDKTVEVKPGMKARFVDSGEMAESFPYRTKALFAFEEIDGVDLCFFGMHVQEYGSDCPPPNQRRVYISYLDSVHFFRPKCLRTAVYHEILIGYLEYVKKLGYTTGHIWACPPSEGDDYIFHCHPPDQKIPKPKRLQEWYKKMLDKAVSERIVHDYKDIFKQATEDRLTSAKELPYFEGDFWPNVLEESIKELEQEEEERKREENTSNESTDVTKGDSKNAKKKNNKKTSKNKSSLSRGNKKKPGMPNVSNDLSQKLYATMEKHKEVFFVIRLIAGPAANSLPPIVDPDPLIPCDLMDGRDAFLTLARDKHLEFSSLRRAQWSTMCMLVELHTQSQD
method: Biochemical assay for EP300, SAMDI
recordedConditions: EP300, SAMDI; read-out: EP300 Biochemistry IC50
Measured pIC50 values are reported for all entries that follow.
For clarity, pIC50 is expressed as the negative log10 of concentration in mol/L.

Before answering, review these 2 worked examples.
CCn1ncc(CN(C)C(=O)c2nc(-c3cccc(-c4ccn[nH]4)c3)nc3ccc(Cl)cc23)c1C; 5.72
Cc1nc(-c2cc(C(=O)N(C)Cc3cn(C)c(CC(F)(F)F)n3)c3cc(Cl)ccc3n2)ccc1NCCN(C)C; 5.37

Given item `CCn1ncc(CN(C)C(=O)c2cc(-c3cnc[nH]3)nc3ccc(Cl)cc23)c1C` , the value recorded as its pIC50 is 6.96

`CCn1ncc(CN(C)C(=O)c2nc(-c3cc(N)c4cn[nH]c4c3)nc3ccc(Cl)cc23)c1C` yielded pIC50 of 7.42

Record `CCc1nc(-c2cc(C(=O)N(C)Cc3onc(CC)c3C)c3cc(COC)ccc3n2)ccc1NCCN(C)C` . Reported pIC50: 6.76

Reported pIC50 for `CCn1ncc(CN(C)C(=O)c2nc(-c3cnnc(N)c3)nc3ccc(Cl)cc23)c1C` was 5.57
